Test system: Candidatus 'Liberibacter asiaticus'
Format: in vivo
Settings: 1 μM, spraying every 15 days, 12 months after treatment, Citrus sinensis with HLB

Compound	Titers of the bacterium, copies per reaction
O=C(Cc1cc2c(oc1=O)C=CC1C(c3ccc4ccccc4c3)=COC21)NCC(O)CO (stereo not shown)	5
Cc1c(CCC(=O)NCC(O)CO)c(=O)oc2cc3occc3cc12 (stereo not shown)	0
O=C(Cc1cc2c(oc1=O)C=CC1C(C3CCCCC3)=COC21)NCC(O)CO (stereo not shown)	2
Cc1nc(N2CCN(n3cccc3)CC2)ncc1C(=O)N1CC2CC(O)C(O)CC2C1 (stereo not shown)	6
CC1CCN(C(=O)c2ccc(OC3CCN(CC(O)CO)CC3)cc2)C1 (stereo not shown)	5
O=C(CCc1cc2cc3c(-c4ccc5ccccc5c4)coc3cc2oc1=O)NCC(O)CO (stereo not shown)	0
CN1c2cc(C(=O)NC3CCCCC3)ccc2OCC1CC(=O)NC(CO)CO (stereo not shown)	0
O=C(c1cnc(N2CCNCC2)nc1)N1CC2CC(O)C(O)CC2C1 (stereo not shown)	8
O=C(CC1COc2ccc(C(=O)Nn3cccc3)cc2N1)NC(CO)CO (stereo not shown)	0
O=C(CC1COc2ccc(C(=O)NC3CCCC3)cc2N1)NC(CO)CO (stereo not shown)	0
Cc1c(CCC(=O)NCC(O)CO)c(=O)oc2cc3occ(-n4cccc4)c3cc12 (stereo not shown)	0
Cc1c2c(oc(=O)c1CC(=O)NCC(O)CO)C=CC1C(n3cccc3)=COC21 (stereo not shown)	0
O=C(CC1COc2ccc(C(=O)Nc3ccccc3)cc2N1)NC(CO)CO (stereo not shown)	4
CC1=COC2c3c(oc(=O)c(CC(=O)NCC(O)CO)c3C)C=CC12 (stereo not shown)	1
O=C(c1cnc(N2CCN(c3ccccc3)CC2)nc1)N1CC2CC(O)C(O)CC2C1 (stereo not shown)	0
O=C(Cc1cc2c(oc1=O)C=CC1C(n3cccc3)=COC21)NCC(O)CO (stereo not shown)	3
CN1CCN(c2ncc(C(=O)N3CC4CC(O)C(O)CC4C3)cn2)CC1 (stereo not shown)	0
O=C(CCc1cc2cc3c(-c4ccccc4)coc3cc2oc1=O)NCC(O)CO (stereo not shown)	0
CC(O)C(O)CN1CCC(Oc2ccc(C(=O)N3CCC(C4CCCC4)C3)cc2)CC1 (stereo not shown)	0
Cc1nc(N2CCN(C3CCCCC3)CC2)ncc1C(=O)N1CC2CC(O)C(O)CC2C1 (stereo not shown)	4
Cc1nc(N2CCNCC2)ncc1C(=O)N1CC2CC(O)C(O)CC2C1 (stereo not shown)	7
CN1c2cc(C(=O)NC3CCCC3)ccc2OCC1CC(=O)NC(CO)CO (stereo not shown)	0
Cc1nc(N2CCN(c3ccccc3)CC2)ncc1C(=O)N1CC2CC(O)C(O)CC2C1 (stereo not shown)	0
Cc1c2c(oc(=O)c1CC(=O)NCC(O)CO)C=CC1C(c3ccccc3)=COC21 (stereo not shown)	1
Cc1c2c(oc(=O)c1CC(=O)NCC(O)CO)C=CC1C(c3ccc4ccccc4c3)=COC21 (stereo not shown)	0
Cc1c(CCC(=O)NCC(O)CO)c(=O)oc2cc3occ(C4CCCC4)c3cc12 (stereo not shown)	0
CC1=COC2c3cc(CC(=O)NCC(O)CO)c(=O)oc3C=CC12 (stereo not shown)	0
Cc1c(CCC(=O)NCC(O)CO)c(=O)oc2cc3occ(-c4ccccc4)c3cc12 (stereo not shown)	14

---

Tested on: Botrytis cinerea
Experiment: Control of Botrytis cinerea disease in Arabidopsis (Bc-At)
Type: in vivo
Details: 1 μM spraying every 24 hours for one week, water control 8.7
Quantity kind: Bc-At: mean of the diameter of the lesion (mm)

Compound	Unit descriptor	Observed measurement
CNC(=O)c1ccc2c(c1)N(C)C(CC(=O)NC(CO)CO)CO2 (stereo not drawn) [VB]	mm	0.7
Cc1nc(N2CCN(C3CCCC3)CC2)ncc1C(=O)N1CC2CC(O)C(O)CC2C1 (stereo not drawn) [IIIH]	mm	0.7
CNC(=O)c1ccc2c(c1)NC(CC(=O)NC(CO)CO)CO2 (stereo not drawn) [VA]	mm	2.4
O=C(c1ccc(OC2CCN(CC(O)CO)CC2)cc1)N1CCC(n2cccc2)C1 (stereo not drawn) [IVK]	mm	0.5
O=C(c1cnc(N2CCN(c3ccccc3)CC2)nc1)N1CC2CC(O)C(O)CC2C1 (stereo not drawn) [IIIC]	mm	1.2
O=C(c1cnc(N2CCN(C3CCCCC3)CC2)nc1)N1CC2CC(O)C(O)CC2C1 (stereo not drawn) [IIIE]	mm	0.5

---

Test system: Candidatus 'Liberibacter asiaticus'
Assay type: in vivo
Details: 0.001 μM, spraying every 15 days, 12 months after treatment, Citrus sinensis with HLB
Quantity kind: Titers of the bacterium (copies per reaction)

Compound	Assay system	Unit descriptor	Observed measurement
Cc1c2c(oc(=O)c1CC(=O)NCC(O)CO)C=CC1C(n3cccc3)=COC21 (stereo not drawn)	Candidatus 'Liberibacter asiaticus'	copies per reaction	598
CC1CCN(C(=O)c2ccc(OC3CCN(CC(O)CO)CC3)cc2)C1 (stereo not drawn)	Candidatus 'Liberibacter asiaticus'	copies per reaction	598
O=C(c1cnc(N2CCN(C3CCCC3)CC2)nc1)N1CC2CC(O)C(O)CC2C1 (stereo not drawn)	Candidatus 'Liberibacter asiaticus'	copies per reaction	756
CNC(=O)c1ccc2c(c1)NC(CC(=O)NC(CO)CO)CO2 (stereo not drawn)	Candidatus 'Liberibacter asiaticus'	copies per reaction	524
O=C(CCc1cc2cc3c(-n4cccc4)coc3cc2oc1=O)NCC(O)CO (stereo not drawn)	Candidatus 'Liberibacter asiaticus'	copies per reaction	657
O=C(CC1COc2ccc(C(=O)Nc3ccccc3)cc2N1)NC(CO)CO (stereo not drawn)	Candidatus 'Liberibacter asiaticus'	copies per reaction	432
